- targetUnderTest: P. falciparum apicoplast DNA polymerase (Pf-apPOL) (Plasmodium falciparum, UniProt Q8ILY1)
- Sequence (Q8ILY1 entry or part of it): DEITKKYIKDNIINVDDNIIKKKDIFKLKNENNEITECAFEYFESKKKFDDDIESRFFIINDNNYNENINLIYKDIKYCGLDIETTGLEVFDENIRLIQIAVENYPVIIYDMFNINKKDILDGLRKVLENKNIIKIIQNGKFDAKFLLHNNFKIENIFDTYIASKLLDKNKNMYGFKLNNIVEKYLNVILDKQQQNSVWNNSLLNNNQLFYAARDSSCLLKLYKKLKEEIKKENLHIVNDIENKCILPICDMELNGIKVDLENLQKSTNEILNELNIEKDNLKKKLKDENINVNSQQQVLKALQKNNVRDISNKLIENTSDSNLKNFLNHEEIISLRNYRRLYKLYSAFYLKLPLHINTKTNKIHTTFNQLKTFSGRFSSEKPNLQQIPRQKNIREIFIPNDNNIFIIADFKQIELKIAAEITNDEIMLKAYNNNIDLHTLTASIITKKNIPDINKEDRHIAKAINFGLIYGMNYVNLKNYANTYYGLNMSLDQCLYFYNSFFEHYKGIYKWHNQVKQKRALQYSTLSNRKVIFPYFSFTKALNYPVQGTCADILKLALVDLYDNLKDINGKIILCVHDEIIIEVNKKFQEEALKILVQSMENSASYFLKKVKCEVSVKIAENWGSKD
- measurementProtocol: Fluorescence-based high-throughput DNA polymerase assay (molecular beacon), primary screen and dose-response;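 on % inhibition apPOL 180': test concentration in µM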
- Format: biochemical
- studyConditions: DRC-1; 180'; conc 10
Collected % inhibition apPOL 180' values appear next to each entry.
Lab note: write values as number then unit, every time.

molecule	% inhibition apPOL 180'
O=c1nc(/C=C/c2ccc(Br)cc2)oc2ccccc12 [KU0052629]	-1.853%
Cc1ccc(CNC(=O)c2cnn3c(O)cc(CSc4ccc(Cl)cc4)nc23)cc1 [Molecule 99]	45.1863%

The recorded % inhibition apPOL 180' for entry O=C1Nc2ccc(I)cc2C1=Cc1cc(Br)c(O)c(Br)c1 [Molecule 27] equals 40.1564%

Record Cc1cc(C)c2c(c1)C1C=CCC1C(c1ccc(C(=O)O)cc1)N2 (stereo not shown) [Molecule 102] . Reported % inhibition apPOL 180': 32.4501%

###

Recorded % inhibition apPOL 180' values for a group of compounds are listed next.
- targetUnderTest: P. falciparum apicoplast DNA polymerase (Pf-apPOL) (Plasmodium falciparum)
- measurementProtocol: Fluorescence-based high-throughput DNA polymerase assay (molecular beacon), primary screen and dose-response
- Type: biochemical
- studyConditions: DRC-2; 180'; concentration 2.5

compound	observedValue
Cc1ccc2c(C(=O)NCCc3cccnc3)cc(NC(=O)C(C)C)cc2n1	-1.29%
Cc1nc(/N=N/c2ccc(C(=O)[O-])cc2)c(COP(=O)([O-])[O-])c(C=O)c1O.[Na+].[Na+].[Na+]	20%
CCOc1ccc(/C=C2\N=C(c3cc([N+](=O)[O-])cc([N+](=O)[O-])c3)OC2=O)cc1	2.15%
Cc1ccc(NC(=O)C2CCN(C(=O)c3cc4ccsc4[nH]3)CC2)c(Br)c1	2.63%
COc1ccc(NC(=O)Cn2ccc3c(=O)[nH]ccc32)cc1 [Molecule 13, COc1ccc(cc1)NC(=O)Cn1ccc2c1cc[nH]c2=O]	-2%
Cc1ccsc1Cn1c(C)ccc1C	-6%
CCN1C(=O)C(=Cc2cccc(OC)c2O)SC1=S	-5.52%

Lab note: CCCCCCCCCCCC1SCC(C(=O)O)N1C(C)=O (centres unmarked) gave % inhibition apPOL 180' of 0.516%

###

Below, each entry is listed with its recorded % inhibition Apol 90'.
- targetUnderTest: P. falciparum apicoplast DNA polymerase (Pf-apPOL) (Plasmodium falciparum)
- measurementProtocol: Fluorescence-based high-throughput DNA polymerase assay (molecular beacon), primary screen and dose-response
- Format: biochemical
- studyConditions: DRC-1; 90'; concentration 5
Write down the numeric answer in % and omit the unit.

Use the examples below as a reference point.
compound	unitName	% inhibition Apol 90'
OC(C#Cc1ccccc1)c1ccco1 (stereo not drawn) [Molecule 95, OC(c1ccco1)C#Cc1ccccc1]	%	42.0165
COc1cccc(C(=O)N2CCc3c(nc4cc(-c5ccccc5)[nH]n4c3=O)C2)c1OC [Molecule 22]	%	12
O=c1[nH]c2ccc(Br)cc2c(-c2ccccc2)c1C1=NNC(c2ccco2)C1 (stereo not drawn) [KU0045540]	%	9.899
O=c1cc(-c2ccccc2Cl)oc2c(NS(=O)(=O)c3cc(Cl)cc(Cl)c3O)ccc(O)c12 [KU0104277]	%	2.039
CCOC(=O)C(NCc1ccco1)(NC(=O)c1ccco1)C(F)(F)F (stereo not drawn) [KU0276119]	%	-2.247
Cc1ccc(CCNC(=O)c2cnn3c(O)c(Cc4ccccc4F)c(C)nc23)cc1 [KU0097142]	%	-5.811

For record O=C(CSc1nnc(-c2ccco2)[nH]1)c1ccc(Cl)cc1 [KU0029065] the listed % inhibition Apol 90' is 16.5602

Consider Cc1cc(C)cc(-n2nc3c(c2NC(=O)c2ccco2)CSC3)c1 [KU0055926] . Its measured % inhibition Apol 90' is 15.258

For this compound ( CCCCC(=O)N1CCc2c(nc3cc(-c4ccccc4Cl)[nH]n3c2=O)C1 [Molecule 37] ), measured % inhibition Apol 90' is 13.0098

###

- targetUnderTest: P. falciparum apicoplast DNA polymerase (Pf-apPOL) (Plasmodium falciparum, UniProt Q8ILY1)
- measurementProtocol: Fluorescence-based high-throughput DNA polymerase assay (molecular beacon), primary screen and dose-response;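 on % inhibition ApPOL 90': test concentration in µM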
- Type: biochemical
- studyConditions: DRC-2; 90'; concentration 2.5
propertyMeasured: % inhibition ApPOL 90' (%)
Your answer is read as %, so omit the unit and give the number.

Example entries begin here.
molecule	observedValue
CN(C)S(=O)(=O)Oc1ccc(-c2noc(-c3ccc(Oc4cc(Cl)cc(Cl)c4)o3)n2)cc1	0.164
COc1ccc(S(=O)(=O)/N=C2\NC(=O)/C(=C3\C(=O)Nc4ccc([N+](=O)[O-])cc43)S2)cc1	3.52
O=C(NCC1CCN(C2CCCC2)CC1)C(=O)NC1CCCC1	2.29
O=C(Cn1ccc2c(=O)[nH]ccc21)Nc1cccc(Cl)c1 [Molecule 23, O=C(Cn1ccc2c1cc[nH]c2=O)Nc1cccc(c1)Cl]	3
Oc1cccc2ccc(/C=C/c3ccc4c(c3)OCO4)nc12	12

Given item Nc1c(S(=O)(=O)O)cc(Nc2ccccc2)c2c1C(=O)c1ccccc1C2=O , the value recorded as its % inhibition ApPOL 90' is 2.58

Sure, the documented % inhibition ApPOL 90' for Cn1nc(-c2nnc(-c3ccccc3F)o2)c2c1CCN(C(=O)c1ccccc1Cl)C2 is 22

What the record says about O=C1C(=Cc2ccccc2O)Oc2ccc(O)cc21 : % inhibition ApPOL 90' is 0

Field % inhibition ApPOL 90' (entry Cc1cccc(CC(=O)N2CCc3c(nc4cc(-c5ccccc5)[nH]n4c3=O)C2)c1 ) reads 4.61

###

Below, each entry is listed alongside its reported DNA Pol.
- targetUnderTest: P. falciparum apicoplast DNA polymerase (Pf-apPOL) (Plasmodium falciparum)
- measurementProtocol: Fluorescence-based high-throughput DNA polymerase assay (molecular beacon), primary screen and dose-response
- Type: biochemical
- studyConditions: 186 hits; DNA Pol (screen value), unit not given; 90 min, 10 µM
Keep the answer to the number alone.

Solved entries:
molecule	targetUnderTest	DNA Pol
C#CC(C=CC)OC(=O)c1ccccc1C(=O)O (stereo not shown) [Molecule 61, CC=CC(OC(=O)c1ccccc1C(=O)O)C#C]	P. falciparum apicoplast DNA polymerase (Pf-apPOL) (Plasmodium falciparum)	84
Cc1cc2[nH]c(C(=O)Nc3ccc(F)cc3)c(CN3CCOCC3)c2s1 [Molecule 60]	P. falciparum apicoplast DNA polymerase (Pf-apPOL) (Plasmodium falciparum)	24
COc1ccccc1CC(=O)N1CCc2c(nc3cc(-c4ccccc4Cl)[nH]n3c2=O)C1 [Molecule 49]	P. falciparum apicoplast DNA polymerase (Pf-apPOL) (Plasmodium falciparum)	46

Per the record, N#Cc1c(O)nc(N2CCCCC2)nc1-c1ccc2c(c1)OCO2 [KU0083146] has DNA Pol of 49

###

Property: % inhibition apPOL 180'; scope: individual compounds
- targetUnderTest: P. falciparum apicoplast DNA polymerase (Pf-apPOL) (Plasmodium falciparum, UniProt Q8ILY1)
- measurementProtocol: Fluorescence-based high-throughput DNA polymerase assay (molecular beacon), primary screen and dose-response;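 on % inhibition apPOL 180': test concentration in µM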
- Assay type: biochemical
- studyConditions: DRC-2; 180'; concentration 5

Field % inhibition apPOL 180' (entry O=c1[nH]c2ccc(Br)cc2c(-c2ccccc2)c1C1=NNC(c2ccco2)C1 (centres unmarked) [KU0045540] ) reads 22%

Reported % inhibition apPOL 180' ( NS(=O)(=O)c1ccc(NC(=O)c2ccc(N3C(=O)CCC3=O)cc2)cc1 [KU0025331] ) = -1.74%

Entry O=C(NCC1CCN(C2CCCC2)CC1)C(=O)NC1CCCC1 [KU0199596] , % inhibition apPOL 180' reported as -84%

###

A collection of molecules and their measured % inhibition Apol 90'
- targetUnderTest: UniProt:Q8ILY1
- measurementProtocol: Fluorescence-based high-throughput DNA polymerase assay (molecular beacon), primary screen and dose-response
- Assay type: biochemical
- studyConditions: DRC-1; 90'; concentration 2.5
Note to self: number, then unit, no commentary.

Known results for molecules:
smilesStructure	propertyMeasured	observedValue
COc1ccc(-c2c(C(F)(F)F)nn3c(=O)cc(-c4cccc([N+](=O)[O-])c4)[nH]c23)cc1	% inhibition Apol 90'	17.6214%
O=C1NCCCn2cc(S(=O)(=O)Nc3ccccc3)cc21	% inhibition Apol 90'	-1.959%

Form: molecule = O=c1cc(-c2ccccc2Cl)oc2c(NS(=O)(=O)c3cc(Cl)cc(Cl)c3O)ccc(O)c12 ; % inhibition Apol 90' = -8.287%

CC1(C)CC(=O)C2=C(C1)OC1=C(C(=O)CC(C)(C)C1)C2c1ccc(O)cc1 has a reported % inhibition Apol 90' of 3.436%

###

- targetUnderTest: P. falciparum apicoplast DNA polymerase (Pf-apPOL) (Plasmodium falciparum)
- measurementProtocol: Fluorescence-based high-throughput DNA polymerase assay (molecular beacon), primary screen and dose-response
- Assay type: biochemical
- studyConditions: DRC-2; 5'; concentration 10
propertyMeasured: % inhibition Apo pol 5' (%)
Write the number in % without appending the unit.

Solved cases below.
molecule	unitName	observedValue
O=C(NNC(=O)c1ccc(Cl)cc1)C(=O)NNC(=O)c1ccc(Cl)cc1 [Molecule 25]	%	29
O=C(c1ccccc1)N1CCc2c(nc3cc(-c4ccccc4)[nH]n3c2=O)C1 [Molecule 30]	%	37
O=C(Nc1cccc(Cl)c1)Nc1nnc(-c2ccncc2)s1 [KU0022348]	%	46

Okay, now this molecule:
Field % inhibition Apo pol 5' (system: P. falciparum apicoplast DNA polymerase (Pf-apPOL) (Plasmodium falciparum)) for entry COc1ccc(-c2c(C(F)(F)F)nn3c(=O)cc(-c4cccc([N+](=O)[O-])c4)[nH]c23)cc1 [Molecule 16] = 28
